Biological target: T1, TIAM2, Q8IVF5
T1 sequence (Q8IVF5 885-986, limits assumed, looked up): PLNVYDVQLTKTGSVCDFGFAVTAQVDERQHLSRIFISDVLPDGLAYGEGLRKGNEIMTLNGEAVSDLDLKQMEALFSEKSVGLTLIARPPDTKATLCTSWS
Experiment: holdup assay
Set-up: key: below the threshold = too weak to quantify, mostly under pKd 3.1 to 4
Details: plain residues with an end cap or a label only (N-terminal biotin on a linker: ado-ado)
readoutName: pKd

Record excerpt, results attached:
binder: SAGADSETHC [SLCO1B1, Q9Y6L6]
pKd: below the threshold
--
binder: PEKVSNTTVV [IGSF5, Q9NSI5]
pKd: 4.04
--
binder: HDDYFYHDEL [RCN2, Q14257]
pKd: below the threshold
--
binder: KEKASTETEC [TRPM1, Q7Z4N2]
pKd: below the threshold
--
binder: PKSNSSKEYV [CLDN7, O95471]
pKd: below the threshold
--
binder: SGDGKTSVWI [GJC1, P36383]
pKd: 4.21

Next item in the queue.
# pKd of NSTHNLKDYV [CLDN20, P56880] = below the threshold
